PROCEDURE_DETAILS: growth inhibition, MDA-MB-436, cell-based, BGB or cisplatin combos, synergistic combos for chromothripsis tumors (AID 1671458);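 note: cells exposed for 96 hours; 0% = vehicle DMSO and 100% = killing by high DMSO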
CONDITION_CONTEXT: MDA-MB-436 breast carcinoma growth inhibition, drug combinations; at 0.5 µM; stronger effect = higher value
The source made the active and inactive calls. The rule behind the calls is not given here.
PARAMETER: inhibition

INSERT INTO measurements (smiles_representation, parameter, value) VALUES
  ('CN(C)Cc1c(C(=O)NCCOc2ccc(C(=O)NO)cc2)oc2ccccc12', 'inhibition', '43.7% (inactive)'),
  ('CCCCc1nc2cc(/C=C/C(=O)NO)ccc2n1CCN(CC)CC', 'inhibition', '23.8% (inactive)'),
  ('COc1cc2ncnc(-n3nc(-c4ccccn4)nc3N)c2cc1OC', 'inhibition', '-17.5% (inactive)'),
  ('CO[C@H]1/C=C/O[C@@]2(C)Oc3c(C)c(O)c4c(O)c(c(/C=N\N5CCN(C6CCCC6)CC5)c(O)c4c3C2=O)NC(=O)/C(C)=C\C=C\[C@H](C)[C@H](O)[C@@H](C)[C@@H](O)[C@@H](C)[C@H](OC(C)=O)[C@@H]1C', 'inhibition', '-19% (inactive)'),
  ('O=c1cc(N2CCOCC2)oc2c1ccc1ccccc12', 'inhibition', '2.45% (inactive)'),
  ('O=C(/C=C/c1ccc(CN(CCO)CCc2c[nH]c3ccccc23)cc1)NO', 'inhibition', '63.3% (inactive)'),
  ('CS(=O)(=O)c1ccc(-c2nnc(/C=C/c3nnc(-c4ccc(C#N)cc4)o3)n2-c2ccccc2Cl)nc1', 'inhibition', '7.83% (inactive)'),
  ('COc1cc(C=O)c([N+](=O)[O-])cc1OC', 'inhibition', '-6.2% (inactive)'),
  ('CN[C@@H]1CN(c2ccc3c(=O)c(C(=O)O)cn(-c4nccs4)c3n2)C[C@H]1OC', 'inhibition', '25.6% (inactive)'),
  ('O=c1[nH]c([C@@H]2CCCN2)nc2c1oc1ccc(Cl)cc12', 'inhibition', '-35% (inactive)'),
  ('O=c1[nH]cnc2ccccc12', 'inhibition', '-5.02% (inactive)'),
  ('CC(=O)[C@]1(N)Cc2c(O)c3c(c(O)c2[C@@H](O[C@H]2C[C@H](O)[C@H](O)CO2)C1)C(=O)c1ccccc1C3=O', 'inhibition', '-0.11% (inactive)'),
  ('C=C1[C@H](CO)[C@@H](O)C[C@@H]1n1cnc2c(=O)[nH]c(N)nc21', 'inhibition', '-0.47% (inactive)'),
  ('NC(=O)c1nc(F)c[nH]c1=O', 'inhibition', '-2.87% (inactive)');

----------
PROCEDURE_DETAILS: compounds altering viability of human ES cells (AID 493140);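 note: cells exposed to compounds for four days before counting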
CONDITION_CONTEXT: human embryonic stem cell survival screen
Active and inactive are the calls of the source. No rule for the calls is given here.
Outcome codes: YES (active), NO (inactive)

INSERT INTO assay_data (compound, label_class) VALUES
  ('CCCCCCCCCCCCC/C=C/[C@@H](O)[C@H](CO)NC(=O)CCCCCCC', 'NO'),
  ('COc1ccc(S(=O)(=O)N(CCO)c2ccccc2CN(C)C/C=C/c2ccc(Cl)cc2)cc1', 'NO'),
  ('CN(C)N=Nc1nc[nH]c1C(N)=O', 'NO'),
  ('COc1cc2ncc(-c3ccccc3)nc2cc1OC', 'NO'),
  ('CCCCC[C@H](O)/C=C/[C@@H]1[C@@H](C/C=C\CCCC(=O)O)[C@@H](O)C[C@H]1O', 'NO'),
  ('Clc1ccc(COC(Cn2ccnc2)c2ccc(Cl)cc2Cl)c(Cl)c1 (configuration not stated)', 'NO'),
  ('CCCCC[C@H](O)/C=C/C1=C(CCCCCCC(=O)O)C(=O)CC1', 'NO'),
  ('CCCCCCCC(=O)OC[C@H](CO)OC(=O)CCCCCCC', 'NO'),
  ('CCCCCCCC/C=C\CCCCCCCC(=O)OC[C@H](CO)OC(C)=O', 'NO'),
  ('CC/C=C\C/C=C\C/C=C\CCCCCCCC(=O)O', 'NO'),
  ('CC(C)(C)c1cc(/C=C(\C#N)C(N)=S)cc(C(C)(C)C)c1O', 'NO'),
  ('CCCCC[C@H](O)/C=C/C1=C(C/C=C\CCCC(=O)O)C(=O)CC1', 'NO'),
  ('CCCCCCCC/C=C\C/C=C\C/C=C\CCCC(=O)O', 'NO'),
  ('CC1CNCCN1S(=O)(=O)c1cccc2cnccc12 (configuration not stated)', 'YES'),
  ('N#C/C(=C\c1ccc(O)c(O)c1)C(N)=O', 'NO'),
  ('NC(N)=NCc1cccc(I)c1', 'NO'),
  ('CCCCCCCC/C=C\C/C=C\C/C=C\CCCC(=O)NCCO', 'NO');

----------
cell count: recorded values
PROCEDURE_DETAILS: viability loss with induced miR-34 in A549 – imaging, A549 dox-inducible miR-34, nuclei and caspase counts, primary screen (AID 1347080)
CONDITION_CONTEXT: A549 miR-34 inducible, Hoechst nuclei count, 48 h; measured here: total cells without miR-34 induction
PARAMETER: cell count

INSERT INTO results (compound, value) VALUES
  ('CCCCCCCCCCCCc1ccc(S(=O)(=O)Nc2nncs2)cc1', 8650),
  ('CCCCCCOC(=O)[C@@]1(O)CC2OC1(C)n1c3ccccc3c3c4c(c5c6ccccc6n2c5c31)C(=O)NC4 (stereo partly drawn)', 6430),
  ('CCCCC[C@H](O)/C=C/[C@@H]1[C@H](C/C=C\CCCC(=O)O)[C@H](O)C[C@H]1O', 5450),
  ('CCCCCC(=O)/C=C/[C@@H]1[C@@H](CCCCCCC(=O)O)[C@@H](O)C[C@H]1O', 5520),
  ('CC(C)n1cnc2c(NCCc3ccc(O)cc3)nc(-c3csc4ccccc34)nc21', 7140),
  ('Cc1noc(-c2ccc(CSCCC(=O)O)cc2)c1NC(=O)OC(C)c1ccccc1Cl (stereo not drawn)', 7460),
  ('CCCCC[C@](C)(O)/C=C/[C@H]1[C@H](O)CC(=O)[C@@H]1C/C=C\CCCC(=O)O', 5910),
  ('CN1c2cc(O)c(N=NC(N)=O)cc2CC1S(=O)(=O)O (stereo not drawn)', 10300);

----------
Catalogue of compounds with associated z-score
PROCEDURE_DETAILS: galactose survival enhancers in mitochondrial complex I cybrids – cell-based, galactose medium, ATP luminescence, primary screen (AID 1645843);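 note: positive z means more ATP and so rescue of galactose-driven cybrid death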
CONDITION_CONTEXT: complex I mutant cybrid cells, 72 h, stronger effect = higher value
PARAMETER: z-score

INSERT INTO assay_data (compound, value) VALUES
  ('CCOC(=O)c1ncc2[nH]c3cccc(OC(C)C)c3c2c1C', -0.64),
  ('COC(=O)c1ccccc1NC(=O)c1ccc(F)cc1', 0.635),
  ('CC(C)C[C@H](NC(=O)N1CCCCCC1)C(=O)N[C@H](Cc1cn(C)c2ccccc12)C(=O)N[C@H](Cc1ccccn1)C(=O)O', 1.25),
  ('O=c1cc(N2CCNCC2)oc2c(-c3ccccc3)cccc12', 1.52),
  ('CC(C)NCC(O)COc1ccccc1-n1cccc1 (configuration not stated)', -0.43),
  ('NC(C(=O)O)c1cc(O)ccc1Cl (configuration not stated)', 4.21),
  ('O=C(O)c1ccc(/C=C2/SC(=S)N(c3cccc(C(F)(F)F)c3)C2=O)cc1', -0.215),
  ('O=c1[nH]ccc2c(S(=O)(=O)N3CCCNCC3)cccc12', -0.145),
  ('O=C(O)c1ccc(-c2ccc3cc(C45CC6CC(CC(C6)C4)C5)c(O)cc3c2)cc1', -0.695),
  ('CN(C)C(=O)C(=O)c1cn(C)c2cc(Cl)c(C(=O)N3CCC(Cc4ccc(F)cc4)CC3)cc12', -0.96),
  ('CCc1ccc(/C=C2/SC(=S)NC2=O)cc1', -0.65),
  ('O=c1c(O)c(-c2cc(O)c(O)c(O)c2)oc2cc(O)cc(O)c12', -1.22),
  ('c1ccc(-c2n[nH]c3c2oc2ccccc23)cc1', 0.045),
  ('CC1CNCCN1S(=O)(=O)c1cccc2cnccc12 (configuration not stated)', -1.29),
  ('CS(=O)(=O)Nc1c(O)ccc2c1CCCC2C1=NCCN1 (configuration not stated)', -0.21),
  ('NC(=NCCc1ccc(I)cc1)SCCCC1CNCN1 (configuration not stated)', -0.645),
  ('C[N+](C)(C)CCCCCNCC12CC3CC(CC(C3)C1)C2', -0.15);

----------
PROCEDURE_DETAILS: MELAS cybrid and Rieske KO viability enhancers – cell-based, MELAS cybrids, Rieske KO mouse fibroblasts, CellTiter-Glo, primary screen (AID 1508586);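 note: z relative to plate mean and SD of compound and empty wells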
CONDITION_CONTEXT: Rieske KO mouse fibroblast survival, low glucose, CellTiter-Glo 72 h
Parameter: z-score. Scope: all listed entries.
PARAMETER: z-score

INSERT INTO assay_data (smiles_representation, value) VALUES
  ('CS(=O)(=O)c1cccc(CNc2nc(Nc3ccc4c(c3)CCC(=O)N4)ncc2C(F)(F)F)c1', -0.256),
  ('Nc1nc(Nc2ccc(S(N)(=O)=O)cc2)nn1C(=O)c1c(F)cccc1F', -1.32),
  ('O=[N+]([O-])c1ccc2c(c1)S(=O)(=O)C=C2', -0.336),
  ('C=CC[N+]1([C@H]2C[C@H]3[C@@H]4CC[C@H]5C[C@H](O)[C@@H](N6CCOCC6)C[C@]5(C)[C@H]4CC[C@]3(C)[C@H]2OC(C)=O)CCCC1', -0.444);
